// endpoint IC50 / system human BRS-3 (Homo sapiens, UniProt P32247)
Assay Readout: IC50 (nM)

Molecule	IC50, nM
CCC(C)(C)Cc1c[nH]c(CCc2ccc(-c3cccc4cn[nH]c34)cc2)n1	4.8
CC(C)(C)Cc1cnc(CCc2ccc(-c3ccccc3C(=O)O)cc2)[nH]1	38
CC(C)(Cc1cnc(CCc2ccc(-c3ccc(F)cn3)cc2)[nH]1)C1CC1	25
CCC(C)(C)Cc1c[nH]c(CCc2ccc(C3CCCCC3C(=O)O)cc2)n1 (stereo not drawn)	2.8

(A) CCC(C)(C)Cc1c[nH]c(CCc2ccc(-c3ccccc3OCc3nn[nH]n3)cc2)n1
(B) CCC(C)(C)Cc1c[nH]c(CCc2ccc(N3CCCC[C@@H]3C(=O)O)cc2)n1
Identify the entry with the larger IC50. Options: A and B Mark your answer with the label of the selected entry.
B
(B: 18 nM, A: 5.3 nM)
